Assay text: RP, Waters CORTECS T3, 100 × 2.1 mm, 2.7 µm, 0.3 mL/min, estimated dead time 0.73 min; A: water + 0.1% formic acid, pH 3; B: methanol + 0.1% formic acid, pH 3; gradient (min/%B) 0/5 5/5 25/95 25.1/100 35/100 35.1/5 45/5
Test parameters: stereoisomer not certain
Measured metric: LC retention time (min)

Asked: I'd like to know its LC retention time. The compound in question is CCC(NC(=O)CCC(N)C(=O)O)C(=O)NCC(=O)O (stereo not drawn) [OPHTHALMIC ACID]
Given back: 0.9

Asked: // next record CCOC(=O)Cc1c[nH]c2ccccc12 [ETHYL 3-INDOLEACETATE]
Given back: 17.4

Asked: Would you kindly repeat that for CC(=O)OCC(=O)C1CCC2C3CCC4=CC(=O)CCC4(C)C3CCC12C (stereo not drawn) [DEOXYCORTICOSTERONE ACETATE] ?
Given back: 21.1

Asked: Would you mind doing O=C(O)Cc1c[nH]c2ccc(O)cc12 [5-HYDROXYINDOLEACETATE] as well?
Given back: 8.59

Asked: Input Nc1nc2ncc(CNc3ccc(C(=O)NC(CCC(=O)O)C(=O)O)cc3)nc2c(=O)[nH]1 (stereo not drawn) [FOLIC ACID]
Given back: 10.7

P: OCCc1c[nH]c2ccccc12 [INDOLE-3-ETHANOL]
Q: Cn1cnc2c(ncn2C2OC(CO)C(O)C2O)c1=N (stereo not drawn) [1-METHYLADENOSINE]
Asked: Which gives the smaller LC retention time number: P or Q ? Your answer should be the label attached to the chosen record.
Given back: Q

* * *

Assay text: HILIC, Merck SeQuant ZIC-HILIC, 150 × 2.1 mm, 5 µm, 0.75 mL/min, estimated dead time 0.44 min; A: water + 10 mM ammonium formate, pH 6; B: 5% water + 95% acetonitrile + 10 mM ammonium formate, pH 6; gradient (min/%B) 0/95 5/95 20/57 25/57 30/95 40/95
Test parameters: stereoisomer not certain
Measured metric: LC retention time (min)

Example cases with answers are listed next.
Asked: Record request: LC retention time value, item CC(=O)N[C@H](Cc1c[nH]c2ccccc12)C(=O)O [N-ACETYL-D-TRYPTOPHAN]
Given back: 8.49

Asked: Ok, now Nc1nc2c(ncn2C2OC(CO)C(O)C2O)c(=O)[nH]1 (stereo not given) [GUANOSINE]
Given back: 10.5

Asked: Same for N[C@@H](Cc1ccc(O)c([N+](=O)[O-])c1)C(=O)O [3-NITRO-L-TYROSINE]
Given back: 11

A: O=c1[nH]c(=O)c2[nH]c(=O)[nH]c2[nH]1 [URATE]
B: c1ncc2[nH]cnc2n1 [PURINE]
Asked: Which entry shows the lesser value of LC retention time here, A or B ? // output: label of the selected item
Given back: B

* * *

Assay text: RP, Waters ACQUITY UPLC BEH C18, 100 × 2.1 mm, 1.7 µm, 0.1 mL/min, estimated dead time 2.2 min; A: water + 0.1% formic acid, pH 3; B: methanol + 0.1% formic acid, pH 3; gradient (min/%B) 0/5 5/5 25/95 25.1/100 35/100 35.1/5 45/5
Test parameters: stereoisomer not certain
Measured metric: LC retention time (min)

P: Cc1cc2nc[nH]c2cc1C
Q: Cn1cnc2c(ncn2C2OC(CO)C(O)C2O)c1=N (configuration not stated)
Asked: When the recorded LC retention time values are compared, which is smaller: that of P or that of Q ? Respond with the label that goes with your answer.
Given back: Q

A: NC(=O)c1cccnc1 [NICOTINAMIDE]
B: CC12CCC(=O)C=C1CCC1C2C(O)CC2(C)C1CCC2(O)C(=O)CO (configuration not stated)
C: O=C(O)c1cc(=O)c2ccccc2[nH]1 [4-HYDROXY-2-QUINOLINECARBOXYLIC ACID]
Asked: Ascending sort, LC retention time. Quick reminder: the answer is the labels in the order asked.
Given back: A, C, B

* * *

Assay text: RP, Waters ACQUITY UPLC BEH C18, 100 × 2.1 mm, 1.7 µm, 0.1 mL/min, estimated dead time 2.2 min; A: water + 0.1% formic acid, pH 3; B: methanol + 0.1% formic acid, pH 3; gradient (min/%B) 0/5 5/5 25/95 25.1/100 35/100 35.1/5 45/5
Test parameters: stereoisomer not certain
Measured metric: LC retention time (min)

Here are 6 molecules together with their reported answers.
Asked: Can you share its LC retention time? I mean this molecule: Cc1cc2nc[nH]c2cc1C
Given back: 15.7

Asked: # iterate: C=CC1=C(C)C(C=c2[nH]c(=Cc3[nH]c(C=C4NC(=O)C(C)=C4C=C)c(C)c3CCC(=O)O)c(CCC(=O)O)c2C)=NC1=O
Given back: 23.5

Asked: What about this molecule? Nc1ccn(C2OC(CO)C3OP(=O)([O-])OC32)c(=O)n1 (stereo not drawn) [CYTIDINE 2',3'-CYCLIC MONOPHOSPHATE]
Given back: 2.66

Asked: And the next one, Nc1nc2c(ncn2C2OC3COP(=O)(O)OC3C2O)c(=O)[nH]1 (stereo not drawn) [GUANOSINE 3',5'-CYCLIC MONOPHOSPHATE] ?
Given back: 6.68

Asked: Further, for OCCc1c[nH]c2ccccc12 ?
Given back: 18.5

Asked: Do the same for CC12CCC(=O)C=C1CCC1C2C(O)CC2(C)C1CCC2(O)C(=O)CO (stereo not drawn) please
Given back: 21.6

a: CC12CCC(=O)C=C1CCC1C2C(=O)CC2(C)C1CCC2(O)C(=O)CO (stereo not drawn)
b: Nc1nc2nc[nH]c2c(=O)[nH]1
Asked: Look at a and b . Which one has the lower recorded LC retention time number? Kindly give the label for the entry you pick.
Given back: b
(b: 2.66 min, a: 21 min)

* * *

Assay text: RP, Waters CORTECS T3, 100 × 2.1 mm, 2.7 µm, 0.25 mL/min, estimated dead time 0.88 min; A: water + 0.1% formic acid, pH 3; B: methanol + 0.1% formic acid, pH 3; gradient (min/%B) 0/5 5/5 25/95 25.1/100 35/100 35.1/5 45/5
Test parameters: stereoisomer not certain
Measured metric: LC retention time (min)

Check out these entries, answers already filled in.
Asked: Any idea what LC retention time was measured for O=C(O)CCCCCCC(=O)O [SUBERIC ACID] ?
Given back: 13.5

Asked: Cool, now CC(=O)N[C@@H](CC(=O)O)C(=O)O [N-ACETYL-L-ASPARTIC ACID]
Given back: 1.13

Asked: And the next one, O=C(O)CCCCC1SCC2NC(=O)NC21 (centres undefined) [BIOTIN] ?
Given back: 11.4

Asked: Note, next up: CC(CCC(=O)O)C1CCC2C3C(O)CC4CC(O)CCC4(C)C3CC(O)C12C (centres undefined) [CHOLATE]
Given back: 22.9

Asked: What do you have for O=c1ccn(C2OC(COP(=O)(O)O)C(O)C2O)c(=O)[nH]1 (centres undefined) [URIDINE-5-MONOPHOSPHATE] ?
Given back: 1.08

Asked: Let us now turn to O=C([O-])CCc1ccccc1O [3-(2-HYDROXYPHENYL)PROPANOATE]
Given back: 13.2

Asked: Lookup c1ncc2[nH]cnc2n1 [PURINE]
Given back: 1.99

Asked: Please answer likewise for CC(=O)NC(CCC(=O)O)C(=O)O (racemic) [N-ACETYL-DL-GLUTAMIC ACID]
Given back: 1.77

A: CCCCCCSCC(NC(=O)CCC(N)C(=O)O)C(=O)NCC(=O)O (centres undefined) [S-HEXYL-GLUTATHIONE]
B: O=c1ccn(C2CC(O)C(COP(=O)(O)O)O2)c(=O)[nH]1 (centres undefined) [2'-DEOXYURIDINE 5'-MONOPHOSPHATE]
C: Nc1nc2c(ncn2C2OC(CO)C(O)C2O)c(=O)[nH]1 (centres undefined) [GUANOSINE]
Asked: Rank order required: LC retention time, descending. Please write the labels in the order that was asked for.
Given back: A, C, B

A: CC1NC(=O)NC1CCCCCC(=O)O (centres undefined) [DETHIOBIOTIN]
B: CC(O)(CC(=O)O)C(=O)O (centres undefined) [CITRAMALATE]
C: O=c1[nH]c(=O)c2ncn(C3OC(COP(=O)(O)O)C(O)C3O)c2[nH]1 (centres undefined) [XANTHOSINE 5'-MONOPHOSPHATE]
D: CC(CCC(=O)NCC(=O)O)C1CCC2C3C(O)CC4CC(O)CCC4(C)C3CC(O)C12C (centres undefined) [GLYCOCHOLATE]
E: N[C@@H](Cc1ccc(O)c([N+](=O)[O-])c1)C(=O)O [3-NITRO-L-TYROSINE]
Asked: # rank_down: sort by LC retention time, max first Quick reminder: the answer is the labels in the order asked.
Given back: D, A, E, B, C
